measurementNotes: Paraffin wax solubility test
Format: physicochemical
assaySetup: 2.0 g paraffin wax in 98 g solvent, 25° C., stirring at 350 rpm
Consider the following compounds and their measured DISSOLUTION TIME readings.

compound: CCCCCCCCCCCC(=O)OCC(C)C [ISOBUTYL LAURATE]
readoutUnit: min
DISSOLUTION TIME: 340
--
compound: CCCCCCCCCCCC(=O)OC(C)C [ISOPROPYL LAURATE]
readoutUnit: min
DISSOLUTION TIME: 102
--
compound: CCCCCCCCCCCC(=O)OCCC(C)C [ISOAMYL LAURATE]
readoutUnit: min
DISSOLUTION TIME: 620
--
compound: CCCCCCCCCCCC(=O)OCC(CC)CCCC (centres unmarked) [2-ETHYLHEXYL LAURATE]
readoutUnit: min
DISSOLUTION TIME: 930
--
compound: CCCCCCCCCCCC(=O)OC [METHYL LAURATE]
readoutUnit: min
DISSOLUTION TIME: 300
